Target: T1, human BCMA with a His tag (ACROBiosystems, Catalog No.: BCA-H522y) (human)
T1 construct: Bought His-tagged recombinant protein; also called huBCMA-His; Recombinant human BCMA
T1 chain: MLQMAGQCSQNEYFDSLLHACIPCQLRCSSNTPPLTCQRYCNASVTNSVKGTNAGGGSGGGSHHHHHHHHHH
Experiment: SPR, Biacore T200
We begin with a simple list: items and their reported kon.

{"Binder": "SCT-Aa02(m/m) (antibody, V domains shown, Full IgG format: mouse IgG1 heavy chain constant region, mouse kappa light chain constant region) VH: EVKLLQSGGGLVQPGGSLKLSCAASGIDFSRYWMSWVRRAPGKGLEWIGEINPDSSTINSAPSLEDKFIISRDNAKNTLYLQMSKVRSEDTALYYCASLYYDYERDYAMDYWGQGASVTVSS VL: DIVMTQSQKFMSTSVGDRVSVTCKASQNVGTNVAWYQQKPGQSPKALIYSASYRFSGVPDRFTGSGSGTDFTLTISNVQSEDLAEYFCQQYHSYPFTFGGGTKLEIK", "kon": "292000 M⁻¹ s⁻¹"}
{"Binder": "SCT-Aa10(h/h) (antibody, V domains shown, Full IgG format, chimeric: human IgG1 heavy chain constant region, human kappa light chain constant region) VH: QVQLQQSDAELVKPGASVKISCKVSGYTFTDHTIHWMKQRPEQGLEWIGYIFPRDGNTKYNEKFKGKATMTADKSSSTAYMQLNSLTSEDSAVYFCARWDYEGFDCWGQGTTLTVSS VL: DIVMTQSPATLSVTPGDRVSLSCRASQSISDYLHWYQQKSHESPRLLIKYASQSISGIPSRFSGSGSGSDFTLSINSVEPEDVGVYFCQNGHSFPPTFGSGTKLEIK", "kon": "3.1e+06 M⁻¹ s⁻¹"}
